Tested on: HT29 colon
Assay: NCI-60 one-dose screen, 48 h (100 = growth as untreated, 0 = no growth, -100 = all killed)
Conditions: 10 µM unless noted
Compounds without any hit were thinned out: in the full panel of roughly 83,000, 20% have a hit.
Provide the recorded growth for the entries that follow.
Numbers only, in %.

CCN1CCN(Cc2ccc(NC(=O)c3cccc(C#Cc4cccc5[nH]nc(N)c45)c3)cc2C(F)(F)F)CC1	-83

State the recorded growth for every item in the following list.
1. COc1ccc(/C(=N\O)c2cc(C)c(OC)c(C)c2)cc1O
2. CCCCc1n(Cc2ccc3ccccc3c2)c2ccccc2[n+]1Cc1ccc2ccccc2c1
3. O=c1[nH]c2ccccc2cc1-c1nc2ccncc2[nH]1
4. CC(C)(C)c1nc2c(s1)c1nc(N)ncc1c1ccc(NS(=O)(=O)c3c(F)cccc3F)c(F)c12

-8.4
-74.8
84.5
10.8

###

System: MCF7 breast
Test: NCI-60 one-dose screen, 48 h (100 = growth as untreated, 0 = no growth, -100 = all killed)
Conditions: 10 µM unless noted
Compounds without any hit were thinned out: in the full panel of roughly 83,000, 20% have a hit.
Provide the recorded growth for the entries that follow.
Give bare numbers, in %.

State the recorded growth for every item in the following list.
1. CCOC(=O)c1c(C)nc2c(c1N)/C(=C/c1ccc[nH]1)C(=O)N2Cc1ccc(C(F)(F)F)cc1
2. CC[C@]12C=CCN3CC[C@@]4(c5ccc(OC)cc5N(C)[C@H]4[C@@](O)(C(=O)OC)[C@@H]1OC(=O)CCC(=O)O[C@H]1CC[C@H]4[C@@H]5CC[C@H]6CC(=O)CC[C@]6(C)[C@H]5CC[C@]14C)[C@@H]32
3. COc1ccccc1Nc1nnc(-c2ccc(Cl)cc2)o1
4. O=C(Nc1ccc2ncnc(Nc3ccc(F)c(Cl)c3)c2c1)c1ccccc1
5. N#Cc1c(-c2ccc(F)cc2)nc(N/N=C/c2cccc(O)c2)nc1N1CCOCC1
6. COc1ccc(C(=S)c2cc(OC)c(OC)c(OC)c2)cc1OC(=O)CCl
7. C=C(C)[C@@H]1CC[C@]2(C(=O)O)CC[C@]3(C)[C@H](CC[C@@H]4[C@@]5(C)C[C@@H](CC#Cc6ccccc6)C(=O)C(C)(C)[C@@H]5CC[C@]43C)[C@@H]12

1: 45.1; 2: 9.98; 3: 17.1; 4: 47.2; 5: 72.4; 6: 15; 7: 15.5

###

Test system: NCI-H522 lung
Experiment: NCI-60 one-dose screen, 48 h (100 = growth as untreated, 0 = no growth, -100 = all killed)
Settings: 10 µM unless noted
The panel holds about 83,000 compounds, 20% with a hit somewhere; the sample as a whole holds those more often.
Everything with growth lower than 60% is Not met; everything else, including exactly 60%, is Met.

Solved cases (6 shown):
COc1cc2cc(c1Cl)N(C)C(=O)C[C@H](OC(=O)[C@H](C)N(C)C(=O)CCS)C[C@]1(C)O[C@H]1[C@H](C)[C@@H]1C[C@@](O)(NC(=O)O1)[C@H](OC)/C=C/C=C(\C)C2	Not met
O=[N+]([O-])c1ccc(N=Nc2c(O)c(N=Nc3cc([N+](=O)[O-])cc([N+](=O)[O-])c3O)cc(N=Nc3cc(S(=O)(=O)O)cc4cc(S(=O)(=O)O)cc(O)c34)c2O)cc1	Met
CCOC(=O)c1c(-c2ccc(O)cc2)c(C#N)c2c(C#N)c(N)nn2c1N	Not met
O=C1CC(c2ccc(O)c(O)c2)Oc2cc(O)c([C@@H]3O[C@H](CO)[C@@H](O)[C@H](O)[C@H]3O)c(O)c21 (stereo partly drawn)	Met
O=CN1N=C(c2ccc(Cl)cc2)CC1c1cccc(Nc2ccnc3cc(C(F)(F)F)ccc23)c1 (stereo not drawn)	Not met
CNC(=O)c1cc(Oc2ccc3c(c2)sc2nc(-c4ccc(NC(C)=O)cc4)cn23)ccn1	Not met

Reported growth reaches at least 60% for Cn1c2c(c3ccc(-c4ccn[nH]4)cc3c1=O)C(=O)c1ccccc1-2 ?
Not met

Reported growth reaches at least 60% for COc1ccc2nc3nc4ccc[nH]c4cc3c2c1 ?
Met

###

Test system: PC-3 prostate
Experiment: NCI-60 one-dose screen, 48 h (100 = growth as untreated, 0 = no growth, -100 = all killed)
Settings: 10 µM unless noted
Compounds without any hit were thinned out: in the full panel of roughly 83,000, 20% have a hit.
Provide the recorded growth for the entries that follow.
Give bare numbers, in %.

Check out these entries, answers already filled in.
COc1ccc(-c2nc(C#N)c(NCC(c3ccc(Cl)cc3)N3CCCCC3)o2)cc1 (stereo not given)	75.3
CN(C)c1ccc(-c2ccc3[nH]c(=O)nc(-c4ccc(F)cc4)c3c2)cn1	41.7
N#Cc1ccc(C2C3=C(CCCC3=O)OC3=C2C(=O)c2ccccc2C3=O)cc1 (stereo not given)	72.6
COC(=O)/C=C1\SC(=Nc2ccc(F)cc2)N(CCc2c[nH]c3ccccc23)C1=O	87.9
Nc1c(C(=O)Nc2ccccc2Cl)sc2nc3c(cc12)CN(Cc1ccccc1)CC3	104
N#Cc1c(-c2ccc(F)cc2)nc(N/N=C/c2cccc(O)c2)nc1N1CCOCC1	72.7

State the recorded growth for every item in the following list.
1. Cc1nc2sc(C(=O)Nc3ccccc3Cl)c(N)c2cc1C(C)O (stereo not given)
2. CCCn1cc(/C=N\N=C2\C(=O)Nc3ccc(C)cc32)c2ccccc21
3. COc1ccc(/C=C/C(=O)Nc2ncnc3nc[nH]c23)cc1
4. COc1cc(C2=NN(c3ccccc3)C(c3cccc(Nc4ccnc5cc(C(F)(F)F)ccc45)c3)C2)cc(OC)c1OC (stereo not given)

[83.5, 18, 98.1, 72.4]

###

Test system: UO-31 renal
Experiment: NCI-60 one-dose screen, 48 h (100 = growth as untreated, 0 = no growth, -100 = all killed)
Conditions: 10 µM unless noted
Compounds without any hit were thinned out: in the full panel of roughly 83,000, 20% have a hit. Active and inactive are the calls of the source. How the source made its calls: active means growth percent below 10; inactive means the rest.
Provide the recorded growth for the entries that follow.

c1ccc2nc(N3CCOCC3)c(N3CCCCC3)nc2c1	77.2% (inactive)
Cc1ccc(C2=N[C@H]3CCC[C@@H]3N(c3ccccc3)C(C(Cl)Cl)=N2)cc1	81.9% (inactive)
O=C(/C(=C/c1ccc([N+](=O)[O-])cc1)SCc1ccccc1)c1ccc(Cl)cc1	59.5% (inactive)
COc1ccc(-n2nc(C(=O)NCC(=O)O)nc2-c2ccccc2)cc1	87.5% (inactive)

State the recorded growth for every item in the following list.
1. Clc1ccc2c(NCCCNC3CCCCC3)ccnc2c1
2. O=C1C(Cl)=C(Nc2ccc3c(c2NC2=C(Cl)C(=O)c4ccccc4C2=O)C(=O)c2ccccc2C3=O)C(=O)c2ccccc21
3. Cc1cc(C)nc(NS(=O)(=O)c2ccc(Nc3ccc4c5c(n(CCCN(C)C)c(=O)c4c3)-c3ccccc3C5=O)cc2)n1
4. C=C(C)[C@@H]1CC[C@]2(C(=O)n3ccnc3)CC[C@]3(C)[C@H](CC[C@@H]4[C@@]5(C)CCCNC(C)(C)[C@@H]5CC[C@]43C)[C@@H]12
5. O=C(Nc1ccc(S(=O)(=O)NC2CCCCCC2)cc1)C(c1ccccc1)S(=O)(=O)c1ccc(F)cc1 (centres undefined)
6. C=C1C(=O)O[C@H]2[C@H]1CC/C(C=Nc1c(N)cc(F)cc1Br)=C\CC[C@@]1(C)O[C@@H]21

1: 83% (inactive); 2: 23.1% (inactive); 3: 88.9% (inactive); 4: 43.8% (inactive); 5: -44.2% (active); 6: 53.5% (inactive)

###

Tested on: HT29 colon
Experiment: NCI-60 one-dose screen, 48 h (100 = growth as untreated, 0 = no growth, -100 = all killed)
Details: 10 µM unless noted
The panel holds about 83,000 compounds, 20% with a hit somewhere; the sample as a whole holds those more often.
experimental_readout: growth (%)
Numbers only, in %.

Check out these entries, answers already filled in.
CCCCc1ccc(N=Nc2ccc(OCC[N+](C)(C)C)cc2)cc1	26.3
CN1CCN(CC#CCOC(=O)CNC(=O)[C@]23CCC(C)(C)C[C@H]2C2=CC[C@@H]4[C@@]5(C)CC[C@H](O)C(C)(C)[C@@H]5CC[C@@]4(C)[C@]2(C)CC3)CC1	75.5
COC(=O)/C=C1\SC(=Nc2ccc(C(F)(F)F)cc2)N(CCc2c[nH]c3ccccc23)C1=O	-34.1

State the recorded growth for every item in the following list.
1. C=C1C(=O)O[C@H]2[C@H]1CC/C(COC(=O)c1c[nH]c3ccccc13)=C\CC[C@@]1(C)O[C@@H]21
2. N#Cc1c(-c2ccc(F)cc2)c(C#N)c2c(C#N)c(N)nn2c1N
3. N#Cc1c(-c2ccc(F)cc2)nc(N=Nc2c(O)[nH]c3ccccc23)nc1N1CCOCC1
4. COc1cccc2c1-c1ccccc1C2=O
5. CCc1c(C(=O)N[C@@H](C(=O)OCc2ccccc2)C(C)O)[nH]c2ccc(Cl)cc12 (some centres undefined)
6. O=C(Nc1ccc2ncnc(Nc3ccc(F)c(Cl)c3)c2c1)c1ccccc1

-59.8
98.7
78.4
17.5
72.8
79

State the recorded growth for every item in the following list.
1. COC(=O)/C=C1\SC(=Nc2ccc(F)cc2)N(CCc2c[nH]c3ccccc23)C1=O
2. O=C1C(=O)c2c(nc3ccc(Br)cn23)-c2ccccc21
3. COc1ccc(/C=C(/C(=O)N2CCCC2)c2cc(OC)c(OC)c(OC)c2)cc1
4. COC(=O)c1ccc(NC(=O)CSc2nc(-c3ccc(F)cc3)nc3ccccc23)cc1
5. O=C1[C@@H](OS(=O)(=O)CC(F)(F)F)[C@H](c2ccc(F)cn2)N1c1cc2c3ccccc3ccc2c2ccccc12
6. CC(C)NS(=O)(=O)c1cccc(-c2ccc3c4c(n(CCCN(C)C)c(=O)c3c2)-c2ccccc2C4=O)c1
7. CCCS(=O)(=O)Nc1ccc(F)c(C(=O)c2c[nH]c3ncc(-c4ccc(OCCCC5CCCCN5)nc4)cc23)c1F (centres undefined)

[66.3, -29.1, 11.6, 91.3, 64.1, -16.2, 2.79]

State the recorded growth for every item in the following list.
1. O=C(C[n+]1cccc2cc(Cl)ccc21)c1ccc2c(c1)CCCC2
2. CCc1n(Cc2ccc3ccccc3c2)c2ccccc2[n+]1Cc1ccc2ccccc2c1
3. O=CN1N=C(c2ccc(F)cc2)CC1c1cccc(Nc2ccnc3cc(C(F)(F)F)ccc23)c1 (centres undefined)

1: 5.56; 2: 25.3; 3: 47.8

These measurements were taken from PubChem BioAssay (NCI).
